Data origin: patent US20090186868A1

Assay: Solubility in first and second solution for disintegration test (Japanese Pharmacopoeia)
Assay type: physicochemical
Conditions: simulated gastric fluid, thermodynamic from solid; first solution for disintegration test, pH 1.2, room temperature, 12 hours or longer; read-out: Solubility (μg/mL) pH 1.2
solubility for assorted molecules
Lab book: enter the figure in µg/mL, no units written.

Examples with their reported solubility follow.
compound_structure=CC(=O)O[C@@]12CO[C@@H]1CC[C@@]1(C)[C@@H]3O[C@H](CN4CC(S(C)(=O)=O)C4)O[C@@H]3C3=C(C)[C@@H](OC(=O)[C@H](O)[C@@H](NC(=O)OC(C)(C)C)c4ncccc4F)C[C@@](O)([C@@H](OC(=O)c4ccccc4)[C@@H]12)C3(C)C reported_measurement=1300
compound_structure=CC(=O)O[C@@]12CO[C@@H]1CC[C@@]1(C)[C@@H]3O[C@H](CN4CCC4)O[C@@H]3C3=C(C)[C@@H](OC(=O)[C@H](O)[C@@H](NC(=O)OC(C)(C)C)c4nccs4)C[C@@](O)([C@@H](OC(=O)c4ccccc4)[C@@H]12)C3(C)C reported_measurement=1000
compound_structure=CC(=O)O[C@@]12CO[C@@H]1CC[C@@]1(C)[C@@H]3O[C@H](CN4CC(O)C4)O[C@@H]3C3=C(C)[C@@H](OC(=O)[C@H](O)[C@@H](NC(=O)OC(C)(C)C)c4ccccn4)C[C@@](O)([C@@H](OC(=O)c4ccccc4)[C@@H]12)C3(C)C reported_measurement=1000

### Prompt Value lookup for solubility; key = "CC(=O)O[C@@]12CO[C@@H]1CC[C@@]1(C)[C@@H]3O[C@H](CN4CC[C@H]4CO)O[C@@H]3C3=C(C)[C@@H](OC(=O)[C@H](O)[C@@H](NC(=O)OC(C)(C)C)c4ncccc4F)C[C@@](O)([C@@H](OC(=O)c4ccccc4)[C@@H]12)C3(C)C"
### Response 1100

### Prompt Now the same for "CC(=O)O[C@@]12CO[C@@H]1CC[C@@]1(C)[C@@H]3O[C@H](CN4CC(C)(O)C4)O[C@@H]3C3=C(C)[C@@H](OC(=O)[C@H](O)[C@@H](NC(=O)OC(C)(C)C)c4ncccc4F)C[C@@](O)([C@@H](OC(=O)c4ccccc4)[C@@H]12)C3(C)C"
### Response 1100

---

Tested on: M5076 (histiocytoma expressing P-gp)
Test: Antitumor effect in mice subcutaneously transplanted with M5076
Format: in vivo, Mice (C57BL/6)
Conditions: M5076, iv; MTD/MED
value kind: Therapeutic index
No unit in the answer, please; the number alone is enough.

Completed entries (count: 2):
compound="CC(=O)O[C@@]12CO[C@@H]1CC[C@@]1(C)[C@@H]3O[C@H](CN4CCC4)O[C@@H]3C3=C(C)[C@@H](OC(=O)[C@H](O)[C@@H](NC(=O)OC(C)(C)C)C(F)F)C[C@@](O)([C@@H](OC(=O)c4ccccc4)[C@@H]12)C3(C)C [Example 31]" tested_target="M5076 (histiocytoma expressing P-gp)" value_kind="Therapeutic index" reported_measurement=1.0
compound="CC[C@H](NC(=O)OC(C)(C)C)[C@@H](O)C(=O)O[C@H]1C[C@@]2(O)[C@@H](OC(=O)c3ccccc3)[C@H]3[C@@](C)(CC[C@H]4OC[C@]43OC(C)=O)[C@@H]3O[C@H](CN4CCC4)O[C@@H]3C(=C1C)C2(C)C [Example 37]" tested_target="M5076 (histiocytoma expressing P-gp)" value_kind="Therapeutic index" reported_measurement=1.4

Consider now this further compound.
### Prompt Bench note: what Therapeutic index did CC(=O)O[C@@]12CO[C@@H]1CC[C@@]1(C)[C@@H]3O[C@H](CN4CCC4)O[C@@H]3C3=C(C)[C@@H](OC(=O)[C@H](O)[C@@H](NC(=O)OC(C)(C)C)c4ncccc4F)C[C@@](O)([C@@H](OC(=O)c4ccccc4)[C@@H]12)C3(C)C [Example 2] show?
### Response 1.0
